# System Tested: T1, recombinant rat NRP-1 protein (rat, UniProt Q9QWJ9 22-855)
# T1 sequence (looked up): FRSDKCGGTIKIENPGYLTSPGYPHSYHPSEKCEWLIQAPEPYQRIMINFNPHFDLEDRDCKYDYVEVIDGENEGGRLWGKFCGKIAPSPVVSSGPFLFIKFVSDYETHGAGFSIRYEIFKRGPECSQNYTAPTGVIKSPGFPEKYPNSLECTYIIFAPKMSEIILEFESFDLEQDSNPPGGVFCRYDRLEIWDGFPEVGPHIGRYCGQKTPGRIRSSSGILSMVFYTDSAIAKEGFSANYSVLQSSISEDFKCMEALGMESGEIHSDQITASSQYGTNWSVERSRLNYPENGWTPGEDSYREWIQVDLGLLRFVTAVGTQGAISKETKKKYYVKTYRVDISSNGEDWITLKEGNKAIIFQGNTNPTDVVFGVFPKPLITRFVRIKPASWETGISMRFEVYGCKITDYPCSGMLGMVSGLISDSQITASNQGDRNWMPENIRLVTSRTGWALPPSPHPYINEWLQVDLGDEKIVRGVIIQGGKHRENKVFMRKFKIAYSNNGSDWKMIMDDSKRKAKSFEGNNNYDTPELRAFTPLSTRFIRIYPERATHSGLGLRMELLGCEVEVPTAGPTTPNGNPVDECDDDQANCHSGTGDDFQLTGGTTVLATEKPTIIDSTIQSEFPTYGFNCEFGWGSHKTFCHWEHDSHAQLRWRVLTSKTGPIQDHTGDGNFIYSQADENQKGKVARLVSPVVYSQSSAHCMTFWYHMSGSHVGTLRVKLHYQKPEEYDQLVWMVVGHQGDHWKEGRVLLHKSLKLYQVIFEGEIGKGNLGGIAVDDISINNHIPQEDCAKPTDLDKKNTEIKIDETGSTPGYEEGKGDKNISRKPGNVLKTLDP
# Protocol Text: SPR
Endpoint: Kd (µM)
Write the answer as a number in µM, unit excluded.

Reported Kd for KDKPPR [KDKPPR peptide] was 8.7
